Tested on: Dugesia japonica
Assay: loss of phototaxis incidence (% planarians (vehicle-normalised)); higher = higher incidence or increase relative to vehicle control
Conditions: exposure time: 15 min to 3 h acute
Measurement label: loss of phototaxis incidence

The following compounds have reported results that may help.
> print(dat)
                                   compound     target.entity             measurement.label  value
1  CN1CCN(CCCN2c3ccccc3Sc3ccc(Cl)cc32)CC1 [prochloroperazine] (1 µM)  Dugesia japonica  loss of phototaxis incidence   4.35
2  CN1CC(=O)N=C1NC(=O)Nc1cccc(Cl)c1 [fenobam] (56.2 µM)  Dugesia japonica  loss of phototaxis incidence   12.5
3  O=C(CCCN1CC=C(n2c(=O)[nH]c3ccccc32)CC1)c1ccc(F)cc1 [droperidol] (3.16 µM)  Dugesia japonica  loss of phototaxis incidence   45.8

Consider the record given below.
Record summary for CN1CCN(CCCN2c3ccccc3Sc3ccc(Cl)cc32)CC1 [prochloroperazine] (100 µM) : reported loss of phototaxis incidence = 76.5

* * *

System: Dugesia japonica
Assay: noxious heat displacement strength vs vehicle (% change vs vehicle); higher = higher incidence or increase relative to vehicle control
Settings: exposure time: 15 min to 3 h acute
Range-based classes on measured noxious heat displacement strength: bottom end: < -30; midrange: ≥ -30 and < -20; top end: ≥ -20

Exam item: Category of CC(NC(C)(C)C)C(=O)c1cccc(Cl)c1 (configuration not stated) [bupropion] (1000 µM) , please.
Marked response: bottom end

* * *

Test system: Dugesia japonica
Assay: C-shape incidence (% planarians (vehicle-normalised)); higher = higher incidence or increase relative to vehicle control
Conditions: exposure time: 15 min to 3 h acute
Counter-ions that a name gives are not always drawn.
Measurement label: C-shape incidence
Please state the value as a number alone, without comment.

The following molecules have reported results that may help.
> print(dat)
                                   molecule  value
1  CNCCC(Oc1ccc(C(F)(F)F)cc1)c1ccccc1 (centres undefined) [fluoxetine hydrochloride] (31.6 µM)      0
2       O=C(O)C(=O)O [oxalic acid] (316 µM)      0
3  CN1CC(=O)N=C1NC(=O)Nc1cccc(Cl)c1 [fenobam] (562 µM)      0
4  O=C(CCCN1CCC(O)(c2ccc(Cl)cc2)CC1)c1ccc(F)cc1 [haloperidol] (100 µM)      0
5  CN(C)CCCC1(c2ccc(F)cc2)OCc2cc(C#N)ccc21 (centres undefined) [citalopram hydrobromide] (31.6 µM)      0
6  CCCCNc1c(C(=O)OCC)c(C)nc2c1cnn2CC [tracazolate hydrochloride] (1 µM)      0
7  CC(NC(C)(C)C)C(=O)c1cccc(Cl)c1 (centres undefined) [bupropion] (316 µM)      0
8  CN1CC(=O)N=C1NC(=O)Nc1cccc(Cl)c1 [fenobam] (316 µM)      0

Record summary for Cc1cc2c(s1)Nc1ccccc1N=C2N1CCN(C)CC1 [olanzapine] (31.6 µM) : reported C-shape incidence = 4.17

* * *

Test system: Dugesia japonica
Assay: noxious heat displacement strength vs vehicle (% change vs vehicle); higher = higher incidence or increase relative to vehicle control
Conditions: exposure time: 15 min to 3 h acute
Structures can show the parent of a compound that is named as a salt.
Measurement label: noxious heat displacement strength
Please state the value as a number alone, without comment.

The following molecules have reported results that may help.
> print(dat)
                                   molecule  value
1  CNCC[C@H](Oc1cccc2ccccc12)c1cccs1 [s-duloxetine] (100 µM)  -66.8
2  Cc1cc2c(s1)Nc1ccccc1N=C2N1CCN(C)CC1 [olanzapine] (3.16 µM)  -37.1
3  CN1CCN(C2=Nc3cc(Cl)ccc3Nc3ccccc32)CC1 [clozapine] (100 µM)  -29.6
4  CN1CCN(CCCN2c3ccccc3Sc3ccc(Cl)cc32)CC1 [prochloroperazine] (3.16 µM)  -46.2

Record summary for CN[C@H]1CC[C@@H](c2ccc(Cl)c(Cl)c2)c2ccccc21 [sertraline hydrochloride] (1 µM) : reported noxious heat displacement strength = -12.6

* * *

System: Dugesia japonica
Assay: loss of heat-induced scrunching incidence (% planarians (vehicle-normalised)); higher = higher incidence or increase relative to vehicle control
Settings: exposure time: 15 min to 3 h acute
# loss of heat-induced scrunching incidence listing for each entry below
Please state the value as a number alone, without comment.

The following compounds have reported results that may help.
> print(dat)
                                   compound  value
1  CN(C)CCC[C@@]1(c2ccc(F)cc2)OCc2cc(C#N)ccc21 [escitalopram] (1000 µM)   60.9
2  CNCC[C@H](Oc1cccc2ccccc12)c1cccs1 [s-duloxetine] (1 µM)     13
3  CC(NC(C)(C)C)C(=O)c1cccc(Cl)c1 (stereo unspecified) [bupropion] (1000 µM)   83.3

Record summary for O=C(CCCN1CCC(O)(c2ccc(Br)cc2)CC1)c1ccc(F)cc1 [bromperidol] (10 µM) : reported loss of heat-induced scrunching incidence = 47.6

Record summary for CC(NC(C)(C)C)C(=O)c1cccc(Cl)c1 (stereo unspecified) [bupropion] (31.6 µM) : reported loss of heat-induced scrunching incidence = 16.7

Record summary for CN1CCN(C2=Nc3cc(Cl)ccc3Nc3ccccc32)CC1 [clozapine] (31.6 µM) : reported loss of heat-induced scrunching incidence = 66.7

* * *

System: Dugesia japonica
Test: C-shape incidence (% planarians (vehicle-normalised)); higher = higher incidence or increase relative to vehicle control
Conditions: exposure time: 15 min to 3 h acute
Counter-ions that a name gives are not always drawn.
# C-shape incidence listing for each entry below
Please state the value as a number alone, without comment.

The following compounds have reported results that may help.
> print(dat)
                                    compound  measurement.label  value
 1  CCCCNc1c(C(=O)OCC)c(C)nc2c1cnn2CC [tracazolate hydrochloride] (100 µM)  C-shape incidence   87.5
 2  CN1C(=O)CN=C(c2ccccc2)c2cc(Cl)ccc21 [diazepam] (31.6 µM)  C-shape incidence     25
 3  O=C1CCc2ccc(OCCCCN3CCN(c4cccc(Cl)c4Cl)CC3)cc2N1 [aripiprazole] (10 µM)  C-shape incidence   12.5
 4  Cc1ncc2n1-c1ccc(Cl)cc1C(c1ccccc1F)=NC2 [midazolam] (31.6 µM)  C-shape incidence      0
 5  CN(C)CCC[C@@]1(c2ccc(F)cc2)OCc2cc(C#N)ccc21 [escitalopram] (10 µM)  C-shape incidence      0
 6  CN[C@H]1CC[C@@H](c2ccc(Cl)c(Cl)c2)c2ccccc21 [sertraline hydrochloride] (31.6 µM)  C-shape incidence      0
 7  CN(C)CCCN1c2ccccc2CCc2ccccc21 [imipramine] (10 µM)  C-shape incidence      0
 8  O=C(CCCN1CCC(O)(c2ccc(Br)cc2)CC1)c1ccc(F)cc1 [bromperidol] (3.16 µM)  C-shape incidence   4.76
 9  Cc1cc2c(s1)Nc1ccccc1N=C2N1CCN(C)CC1 [olanzapine] (10 µM)  C-shape incidence   4.17
10  CN1CCN(C2=Nc3cc(Cl)ccc3Nc3ccccc32)CC1 [clozapine] (100 µM)  C-shape incidence   57.1

Record summary for CN(C)CCC[C@@]1(c2ccc(F)cc2)OCc2cc(C#N)ccc21 [escitalopram] (31.6 µM) : reported C-shape incidence = 0

Record summary for CCCCNc1c(C(=O)OCC)c(C)nc2c1cnn2CC [tracazolate hydrochloride] (10 µM) : reported C-shape incidence = 0

Record summary for CNCCC(Oc1ccc(C(F)(F)F)cc1)c1ccccc1 (stereo not given) [fluoxetine hydrochloride] (10 µM) : reported C-shape incidence = 0

* * *

System: Dugesia japonica
Test: pharynx extrusion incidence (% planarians (vehicle-normalised)); higher = higher incidence or increase relative to vehicle control
Details: exposure time: 15 min to 3 h acute
Counter-ions that a name gives are not always drawn.
Measurement label: pharynx extrusion incidence
Please state the value as a number alone, without comment.

> print(dat)
                                   compound  value
1  CCCCNc1c(C(=O)OCC)c(C)nc2c1cnn2CC [tracazolate hydrochloride] (100 µM)   8.33
2  O=C1CCc2ccc(OCCCCN3CCN(c4cccc(Cl)c4Cl)CC3)cc2N1 [aripiprazole] (10 µM)      0
3  CN(C)CCCN1c2ccccc2CCc2ccccc21 [imipramine] (3.16 µM)      0
4  CCCCNc1c(C(=O)OCC)c(C)nc2c1cnn2CC [tracazolate hydrochloride] (31.6 µM)      0

Consider the record given below.
Record summary for CC(NC(C)(C)C)C(=O)c1cccc(Cl)c1 (stereo not given) [bupropion] (31.6 µM) : reported pharynx extrusion incidence = 0

* * *

Test system: Dugesia japonica
Assay: noxious heat displacement strength vs vehicle (% change vs vehicle); higher = higher incidence or increase relative to vehicle control
Details: exposure time: 15 min to 3 h acute
Structures can show the parent of a compound that is named as a salt.
Measurement label: noxious heat displacement strength
Please state the value as a number alone, without comment.

The following molecules have reported results that may help.
> print(dat)
                                   molecule                   measurement.label  value
1  CN(C)CCCC1(c2ccc(F)cc2)OCc2cc(C#N)ccc21 (stereo unspecified) [citalopram hydrobromide] (10 µM)  noxious heat displacement strength   -8.3
2  O=C(CCCN1CCC(O)(c2ccc(Cl)cc2)CC1)c1ccc(F)cc1 [haloperidol] (31.6 µM)  noxious heat displacement strength    -24
3  CN(C)CCCN1c2ccccc2CCc2ccccc21 [imipramine] (10 µM)  noxious heat displacement strength  -29.7
4  CN(C)CCC[C@@]1(c2ccc(F)cc2)OCc2cc(C#N)ccc21 [escitalopram] (316 µM)  noxious heat displacement strength  -39.8
5  CC(NC(C)(C)C)C(=O)c1cccc(Cl)c1 (stereo unspecified) [bupropion] (316 µM)  noxious heat displacement strength  -7.65

Record summary for O=C1CC2(CCCC2)CC(=O)N1CCCCN1CCN(c2ncccn2)CC1 [buspirone] (3.16 µM) : reported noxious heat displacement strength = -34.1

Record summary for CN(C)CCC[C@@]1(c2ccc(F)cc2)OCc2cc(C#N)ccc21 [escitalopram] (1000 µM) : reported noxious heat displacement strength = -59

Record summary for Cc1ncc2n1-c1ccc(Cl)cc1C(c1ccccc1F)=NC2 [midazolam] (17.8 µM) : reported noxious heat displacement strength = -19.1

Record summary for O=C(CCCN1CCC(O)(c2ccc(Cl)cc2)CC1)c1ccc(F)cc1 [haloperidol] (1 µM) : reported noxious heat displacement strength = -20.5

Record summary for CN1CC(=O)N=C1NC(=O)Nc1cccc(Cl)c1 [fenobam] (562 µM) : reported noxious heat displacement strength = -39.8

Record summary for O=C1CCc2ccc(OCCCCN3CCN(c4cccc(Cl)c4Cl)CC3)cc2N1 [aripiprazole] (10 µM) : reported noxious heat displacement strength = -17.3
